These data points were gathered from ChEMBL document CHEMBL4130435.

pIC50: −log10 of the molar value.
pIC50, Acetylcholinesterase (Homo sapiens, UniProt P22303): measured values

Below, each entry is followed by its recorded pIC50 result.
Enquiry: Query the reported pIC50 for Acetylcholinesterase (Homo sapiens, UniProt P22303); item: CO[C@@H]1C=C[C@@]23c4cc5c(cc4CN(C)[C@@H]2C(=O)N(C)[C@H]3C1)OCO5
Return: < 3.70

Enquiry: What do you get for O[C@H]1[C@H]2c3cc4c(cc3CN3CCC(=C[C@@H]1O)[C@H]23)OCO4 [LYCORINE] ?
Return: < 3.70

Enquiry: And COc1cc2c(cc1O)[C@@H]1[C@H](O)[C@@H](OC)C=C3CCN(C2)[C@H]31 ?
Return: < 3.70

Enquiry: Now this one: COc1cc2c3c(c1)c1cc(=O)c(OC)cc-1cn3CC2
Return: 4.45

Enquiry: Please do the same for COc1cc2c(cc1O)[C@@H]1[C@H](O)[C@@H](O)C=C3CCN(C2)[C@H]31 [PSEUDOLYCORINE] as well.
Return: 3.73

Enquiry: Entry COc1ccc2c3c1O[C@H]1C[C@H](O)CC[C@@]31CCN(C)C2 please
Return: 4.24

Enquiry: How about this compound: CO[C@@H]1C=C[C@@]23c4cc5c(cc4C(=O)N(C)[C@@H]2C(=O)N(C)[C@H]3C1)OCO5
Return: < 3.70

Enquiry: Item: CN[C@H]1C[C@H](OC)C=C[C@@]12C(=O)N(CCC(C)C)Cc1cc3c(cc12)OCO3
Return: < 3.70

Let us examine a further case.
Enquiry: Form entry - test system: Acetylcholinesterase (Homo sapiens, UniProt P22303); read-out: pIC50; compound: CO[C@@H]1C=C[C@@]23c4cc5c(cc4CN(CCC(C)C)[C@@H]2C(=O)N(C)[C@H]3C1)OCO5
Sequence (P22303 whole entry): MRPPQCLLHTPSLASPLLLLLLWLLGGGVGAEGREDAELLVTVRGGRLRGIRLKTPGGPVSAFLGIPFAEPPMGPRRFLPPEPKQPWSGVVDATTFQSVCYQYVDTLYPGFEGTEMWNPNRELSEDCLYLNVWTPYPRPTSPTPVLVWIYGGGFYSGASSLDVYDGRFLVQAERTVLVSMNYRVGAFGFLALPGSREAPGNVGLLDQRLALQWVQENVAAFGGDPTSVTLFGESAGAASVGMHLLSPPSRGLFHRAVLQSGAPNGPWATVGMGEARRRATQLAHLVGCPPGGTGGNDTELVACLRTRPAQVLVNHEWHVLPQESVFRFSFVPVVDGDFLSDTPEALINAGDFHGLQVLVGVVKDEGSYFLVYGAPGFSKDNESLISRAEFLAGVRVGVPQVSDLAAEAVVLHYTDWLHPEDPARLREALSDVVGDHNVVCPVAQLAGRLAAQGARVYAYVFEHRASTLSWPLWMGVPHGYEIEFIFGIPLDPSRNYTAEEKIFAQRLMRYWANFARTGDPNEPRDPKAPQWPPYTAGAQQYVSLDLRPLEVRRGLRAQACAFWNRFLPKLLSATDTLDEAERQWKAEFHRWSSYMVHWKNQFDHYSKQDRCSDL
Return: < 3.70
